Tested on: CCRIS mutagenicity, Ames/micronucleus/aberration tests
methodNotes: CCRIS mutagenicity studies
experimentalContext: Test System: AMES SALMONELLA TYPHIMURIUM; Strain/Indicator: TA100; Metabolic Activation: NONE; Method: STANDARD PLATE
Calls of active or inactive are those of the source. How the calls were made is not given here.
In this exercise, the only acceptable responses are 1 (active), 0 (inactive)

molecule: O=[N+]([O-])OCC(CO[N+](=O)[O-])O[N+](=O)[O-]
experimentalSystem: CCRIS mutagenicity, Ames/micronucleus/aberration tests
labelValue: 0
--
molecule: CC(Cl)C(=O)NCc1ccccc1 (stereo not drawn)
experimentalSystem: CCRIS mutagenicity, Ames/micronucleus/aberration tests
labelValue: 0
--
molecule: Nc1ccc(N=Nc2ccc(N)cc2)cc1
experimentalSystem: CCRIS mutagenicity, Ames/micronucleus/aberration tests
labelValue: 0

[ask] Entry `Cc1ccc(N=Nc2c(O)ccc3ccccc23)c(C)c1` : call = ?
[reply] 0

[ask] GET /call?item= `CN=C([S-])N/N=C/C(C)=N/NC([S-])=NC.[Cu+2]` returns the recorded outcome of this test.
[reply] 0

[ask] How was `Cc1ccc(N)c(S(=O)(=O)O)c1` classified in this test?
[reply] 0
